# Measurement target: human Factor XIa (Homo sapiens (Human), UniProt P03951)
# Sequence (P03951 388-625): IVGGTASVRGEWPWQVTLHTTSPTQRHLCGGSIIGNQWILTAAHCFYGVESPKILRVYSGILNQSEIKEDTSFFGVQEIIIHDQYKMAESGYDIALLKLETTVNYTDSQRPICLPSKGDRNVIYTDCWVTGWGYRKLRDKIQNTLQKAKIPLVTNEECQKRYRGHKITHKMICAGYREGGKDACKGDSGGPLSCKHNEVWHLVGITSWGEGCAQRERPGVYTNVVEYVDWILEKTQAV
# Sequence (P03951 19-387 partner): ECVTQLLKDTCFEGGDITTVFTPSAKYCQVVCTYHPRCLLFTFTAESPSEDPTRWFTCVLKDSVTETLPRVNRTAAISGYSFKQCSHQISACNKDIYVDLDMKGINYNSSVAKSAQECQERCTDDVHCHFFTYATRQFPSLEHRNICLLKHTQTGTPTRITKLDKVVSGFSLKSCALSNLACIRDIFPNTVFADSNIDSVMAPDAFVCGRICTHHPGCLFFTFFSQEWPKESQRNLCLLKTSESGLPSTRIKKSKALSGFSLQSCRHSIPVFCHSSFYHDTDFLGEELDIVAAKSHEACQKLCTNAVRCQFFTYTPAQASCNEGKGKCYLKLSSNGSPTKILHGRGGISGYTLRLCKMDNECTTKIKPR
# Test description: Factor XIa Assay
# Type: biochemical
# Assay context: read-out: FXIa Ki
# Description: The effectiveness of a compound of the present invention as an inhibitor of Coagulation Factor XIa can be determined using a relevant purified serine protease, and an appropriate synthetic substrate. The rate of hydrolysis of the chromogenic or fluorogenic substrate by the relevant serine protease was measured both in the absence and presence of compounds of the present invention. […] A decrease in the rate of fluorescence change in the presence of inhibitor is indicative of enzyme inhibition. […]
Quantity name: Ki (nM)

1. CC(C)(O)C[C@H](NC(=O)c1ccc2c(N)n[nH]c2c1)C(=O)N1CCC[C@@]2(C1)OC(=O)Nc1ccc(Cl)cc12 [Example 269] ... 5

(A) Nc1n[nH]c2cc(C(=O)N[C@@H](CC(=O)N3CCCC3)C(=O)N3CCC[C@@]4(C3)OC(=O)Nc3ccc(Cl)cc34)ccc12 [Example 268]
(B) COC(=O)Nc1ccc(C(=O)N[C@@H](Cc2ccccc2)C(=O)N2CCC3(C2)OC(=O)Nc2ccc(Cl)cc23)nc1 (stereo partly drawn) [Example 166]
Q: Parameter metric = Ki. Return the lower-valued option from A and B . // caller expects the label of the chosen entry
A: A
(A: 0.85 nM, B: 184 nM)

These entries and their values trace back to patent US10093683B2.
